Origin of measurements: patent US20250268876A1

Assay: Emesis study in ferrets
Condition Notes: ferret, in vivo, po
Reported Metric: NOAEL at 3 h (mg/kg)
Lab book: enter the figure in mg/kg, no units written.

Tell me NOAEL at 3 h reported for O=C(Nc1c(Cl)cncc1Cl)c1ccc(OC(F)F)c(OCC2CC2)c1
1

====

Target Or Test System: PDE4A4 (Homo sapiens)
Sequence (P27815 whole entry): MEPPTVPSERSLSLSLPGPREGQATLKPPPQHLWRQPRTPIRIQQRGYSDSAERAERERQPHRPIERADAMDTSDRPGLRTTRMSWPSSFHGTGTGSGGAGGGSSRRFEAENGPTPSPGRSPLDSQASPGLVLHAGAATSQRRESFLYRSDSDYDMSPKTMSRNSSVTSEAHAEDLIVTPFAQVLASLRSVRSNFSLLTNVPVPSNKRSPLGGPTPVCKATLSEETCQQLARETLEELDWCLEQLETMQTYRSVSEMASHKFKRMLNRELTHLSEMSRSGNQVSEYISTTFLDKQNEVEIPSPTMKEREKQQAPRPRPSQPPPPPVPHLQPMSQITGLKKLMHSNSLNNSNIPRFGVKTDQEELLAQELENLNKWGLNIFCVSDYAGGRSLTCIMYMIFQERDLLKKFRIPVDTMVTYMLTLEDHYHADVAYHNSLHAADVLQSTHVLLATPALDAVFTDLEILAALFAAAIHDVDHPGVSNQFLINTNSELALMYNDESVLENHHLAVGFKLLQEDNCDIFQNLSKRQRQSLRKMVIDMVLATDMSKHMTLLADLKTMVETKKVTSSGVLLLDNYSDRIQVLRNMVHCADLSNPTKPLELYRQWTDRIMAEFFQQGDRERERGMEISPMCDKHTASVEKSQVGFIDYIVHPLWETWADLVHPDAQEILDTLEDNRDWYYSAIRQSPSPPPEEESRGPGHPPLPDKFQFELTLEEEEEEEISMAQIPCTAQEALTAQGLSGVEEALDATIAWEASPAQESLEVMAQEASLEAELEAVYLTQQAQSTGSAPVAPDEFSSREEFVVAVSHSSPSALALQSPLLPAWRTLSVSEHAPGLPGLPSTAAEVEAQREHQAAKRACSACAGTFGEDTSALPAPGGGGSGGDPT
Reported Metric: pIC50
Bear in mind: pIC50 is minus log10 of a mol/L concentration; give just that figure.

Find the measured pIC50 of O=C(Cc1c(Cl)c[n+]([O-])cc1Cl)c1ccc(OC(F)F)c2c1OC1(CCS(=O)(=O)CC1)O2 with PDE4A4 (Homo sapiens) as test system.
7.96

====

Test system: TNF-α secretion from human whole blood
Assay: Whole blood TNF-α secretion assay (LPS or SEB)
Format: cell-based
Condition Notes: Homo sapiens, 48 h, LPS 1 μg/mL, 48 hours, donor 2; read-out: EC50
Reported pEC50 values for the following molecules.
Bear in mind: pEC50 is minus log10 of a mol/L concentration; give just that figure.

- Molecule: "O=C(Cc1c(Cl)c[n+]([O-])cc1Cl)c1ccc(OC(F)F)c2c1OC1(CCS(=O)(=O)CC1)O2 [Compound (I)]"
  Target Or Test System: "TNF-α secretion from human whole blood"
  pEC50: 7.70

Next:
Find the measured pEC50 of CCOc1cc([C@@H](CS(C)(=O)=O)N2C(=O)c3cccc(NC(C)=O)c3C2=O)ccc1OC [Apremilast] with TNF-α secretion from human whole blood as test system.
6.44

====

Target Or Test System: PDE4B2 (Homo sapiens)
Sequence (Q07343 1-564 isoform Q07343-2): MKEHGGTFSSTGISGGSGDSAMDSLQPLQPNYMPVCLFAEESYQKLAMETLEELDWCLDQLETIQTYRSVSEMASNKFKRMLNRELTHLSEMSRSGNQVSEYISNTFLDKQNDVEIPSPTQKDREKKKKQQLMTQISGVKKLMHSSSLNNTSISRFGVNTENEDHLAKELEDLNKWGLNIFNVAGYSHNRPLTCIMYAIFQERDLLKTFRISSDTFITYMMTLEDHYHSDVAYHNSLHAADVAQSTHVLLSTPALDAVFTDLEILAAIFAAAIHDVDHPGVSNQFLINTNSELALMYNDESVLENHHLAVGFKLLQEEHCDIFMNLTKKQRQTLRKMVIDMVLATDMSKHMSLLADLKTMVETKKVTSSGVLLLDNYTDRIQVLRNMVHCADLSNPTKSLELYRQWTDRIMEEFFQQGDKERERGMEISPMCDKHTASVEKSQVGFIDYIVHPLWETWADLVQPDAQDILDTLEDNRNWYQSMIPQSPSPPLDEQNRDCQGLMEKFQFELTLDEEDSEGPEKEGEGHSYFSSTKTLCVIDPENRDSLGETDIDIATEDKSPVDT
Reported Metric: pIC50
Bear in mind: pIC50 is minus log10 of a mol/L concentration; give just that figure.

Find the measured pIC50 of O=C(Cc1c(Cl)c[n+]([O-])cc1Cl)c1ccc(OC(F)F)c2c1OC1(CCS(=O)(=O)CC1)O2 [Compound (I)] with PDE4B2 (Homo sapiens) as test system.
8.22

====

Target Or Test System: PDE4D3 (Homo sapiens)
Sequence (Q08499 1-673 isoform Q08499-2): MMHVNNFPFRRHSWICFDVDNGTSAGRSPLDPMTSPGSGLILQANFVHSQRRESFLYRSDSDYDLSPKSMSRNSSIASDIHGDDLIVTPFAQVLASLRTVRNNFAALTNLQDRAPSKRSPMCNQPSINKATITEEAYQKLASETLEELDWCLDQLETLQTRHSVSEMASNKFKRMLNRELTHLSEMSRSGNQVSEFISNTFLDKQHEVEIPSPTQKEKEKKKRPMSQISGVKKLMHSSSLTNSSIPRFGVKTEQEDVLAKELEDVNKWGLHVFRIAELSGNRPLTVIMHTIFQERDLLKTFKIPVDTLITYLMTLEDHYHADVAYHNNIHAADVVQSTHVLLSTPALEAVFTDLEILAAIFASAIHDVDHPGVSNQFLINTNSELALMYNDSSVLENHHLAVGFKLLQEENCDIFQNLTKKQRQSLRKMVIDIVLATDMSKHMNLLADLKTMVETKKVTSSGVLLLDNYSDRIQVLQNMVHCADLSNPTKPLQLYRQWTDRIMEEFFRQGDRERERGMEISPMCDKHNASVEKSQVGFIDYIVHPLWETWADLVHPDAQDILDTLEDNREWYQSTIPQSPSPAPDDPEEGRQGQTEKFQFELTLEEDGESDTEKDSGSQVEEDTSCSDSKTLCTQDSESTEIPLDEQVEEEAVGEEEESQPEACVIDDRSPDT
Reported Metric: pIC50
Bear in mind: pIC50 is minus log10 of a mol/L concentration; give just that figure.

Find the measured pIC50 of O=C(Cc1c(Cl)c[n+]([O-])cc1Cl)c1ccc(OC(F)F)c2c1OC1(CCS(=O)(=O)CC1)O2 [Compound (I)] with PDE4D3 (Homo sapiens) as test system.
8.10

====

Target Or Test System: PDE4B3 (Homo sapiens)
Sequence (Q07343 1-721 isoform Q07343-3): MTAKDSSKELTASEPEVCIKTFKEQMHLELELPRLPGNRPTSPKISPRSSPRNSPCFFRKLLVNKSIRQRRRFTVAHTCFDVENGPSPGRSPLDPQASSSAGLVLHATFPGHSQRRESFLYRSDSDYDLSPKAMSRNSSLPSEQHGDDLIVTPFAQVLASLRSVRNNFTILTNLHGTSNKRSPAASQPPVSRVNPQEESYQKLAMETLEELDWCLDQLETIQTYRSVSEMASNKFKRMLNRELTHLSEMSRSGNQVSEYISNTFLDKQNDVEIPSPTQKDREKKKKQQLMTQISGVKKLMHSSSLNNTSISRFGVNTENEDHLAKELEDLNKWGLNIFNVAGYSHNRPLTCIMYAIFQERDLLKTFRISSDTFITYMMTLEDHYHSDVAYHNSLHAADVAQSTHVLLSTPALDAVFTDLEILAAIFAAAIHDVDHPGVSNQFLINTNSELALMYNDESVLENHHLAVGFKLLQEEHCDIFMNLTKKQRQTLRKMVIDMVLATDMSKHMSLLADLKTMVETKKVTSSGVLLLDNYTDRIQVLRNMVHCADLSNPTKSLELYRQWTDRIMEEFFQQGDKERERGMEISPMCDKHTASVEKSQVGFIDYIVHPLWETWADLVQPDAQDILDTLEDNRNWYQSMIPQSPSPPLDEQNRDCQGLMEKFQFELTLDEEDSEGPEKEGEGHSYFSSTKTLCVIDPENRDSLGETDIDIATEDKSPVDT
Reported Metric: pIC50
Bear in mind: pIC50 is minus log10 of a mol/L concentration; give just that figure.

Find the measured pIC50 of O=C(Cc1c(Cl)c[n+]([O-])cc1Cl)c1ccc(OC(F)F)c2c1OC1(CCS(=O)(=O)CC1)O2 with PDE4B3 (Homo sapiens) as test system.
8.52

====

Target Or Test System: PDE4A1 (Homo sapiens, UniProt P27815)
Sequence (P27815 1-647 isoform P27815-4): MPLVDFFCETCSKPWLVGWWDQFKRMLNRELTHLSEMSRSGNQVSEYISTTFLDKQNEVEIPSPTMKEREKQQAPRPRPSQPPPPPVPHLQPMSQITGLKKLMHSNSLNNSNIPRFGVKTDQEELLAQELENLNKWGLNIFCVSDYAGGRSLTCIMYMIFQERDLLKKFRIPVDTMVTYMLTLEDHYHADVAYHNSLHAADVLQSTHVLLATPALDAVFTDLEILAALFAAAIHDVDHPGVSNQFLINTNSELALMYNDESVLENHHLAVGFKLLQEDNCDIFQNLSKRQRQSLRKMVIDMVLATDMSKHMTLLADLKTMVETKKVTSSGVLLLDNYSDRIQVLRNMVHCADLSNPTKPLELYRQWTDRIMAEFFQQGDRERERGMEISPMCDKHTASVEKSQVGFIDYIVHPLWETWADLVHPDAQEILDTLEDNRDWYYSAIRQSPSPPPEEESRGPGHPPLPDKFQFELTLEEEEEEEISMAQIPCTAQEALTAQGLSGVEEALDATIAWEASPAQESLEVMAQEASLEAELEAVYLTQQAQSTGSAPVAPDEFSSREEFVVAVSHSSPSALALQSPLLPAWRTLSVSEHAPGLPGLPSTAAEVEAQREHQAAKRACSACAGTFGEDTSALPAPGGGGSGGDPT
Reported Metric: IC50 (nM)
Lab book: enter the figure in nM, no units written.

Tell me IC50 reported for O=C(Cc1c(Cl)c[n+]([O-])cc1Cl)c1ccc(OC(F)F)c2c1OC1(CCS(=O)(=O)CC1)O2
16

====

Test system: TNF-α secretion from human whole blood
Assay: Whole blood TNF-α secretion assay (LPS or SEB)
Type: cell-based
Condition Notes: SEB 1 μg/mL, 24 hours, donor 1; read-out: EC50
Reported Metric: pEC50
Bear in mind: pEC50 is minus log10 of a mol/L concentration; give just that figure.

Find the measured pEC50 of O=C(Nc1c(Cl)c[n+]([O-])cc1Cl)c1ccc(OC(F)F)c(OCC2CC2)c1 [Roflumilast N-oxide] with TNF-α secretion from human whole blood as test system.
8.06

====

System: TNF-α secretion from human whole blood
Assay: Whole blood TNF-α secretion assay (LPS or SEB)
Format: cell-based
Condition Notes: Homo sapiens, 48 h, LPS 1 μg/mL, 48 hours, donor 1; read-out: EC50
Reported pEC50 values for the following compounds.
Bear in mind: pEC50 is minus log10 of a mol/L concentration; give just that figure.

- Compound: "CCOc1cc([C@@H](CS(C)(=O)=O)N2C(=O)c3cccc(NC(C)=O)c3C2=O)ccc1OC [Apremilast]"
  Target Or Test System: "TNF-α secretion from human whole blood"
  Reported Metric: "pEC50"
  Reported: 6.56

Tell me pEC50 reported for O=C(Cc1c(Cl)c[n+]([O-])cc1Cl)c1ccc(OC(F)F)c2c1OC1(CCS(=O)(=O)CC1)O2 [Compound (I)]
7.92

====

System: TNF-α secretion from human whole blood
Assay: Whole blood TNF-α secretion assay (LPS or SEB)
Format: cell-based
Condition Notes: Homo sapiens, 24 h, LPS 1 μg/mL, 24 hours, donor 2; read-out: EC50
Reported EC50 values for the following compounds.

- Compound: "CCOc1cc([C@@H](CS(C)(=O)=O)N2C(=O)c3cccc(NC(C)=O)c3C2=O)ccc1OC [Apremilast]"
  Reported: "283 nM"

Next:
Tell me EC50 reported for O=C(Cc1c(Cl)c[n+]([O-])cc1Cl)c1ccc(OC(F)F)c2c1OC1(CCS(=O)(=O)CC1)O2 [Compound (I)]
18.4 nM

====

Target Or Test System: PDE4D5 (Homo sapiens, UniProt Q08499)
Sequence (Q08499 1-745 isoform Q08499-6): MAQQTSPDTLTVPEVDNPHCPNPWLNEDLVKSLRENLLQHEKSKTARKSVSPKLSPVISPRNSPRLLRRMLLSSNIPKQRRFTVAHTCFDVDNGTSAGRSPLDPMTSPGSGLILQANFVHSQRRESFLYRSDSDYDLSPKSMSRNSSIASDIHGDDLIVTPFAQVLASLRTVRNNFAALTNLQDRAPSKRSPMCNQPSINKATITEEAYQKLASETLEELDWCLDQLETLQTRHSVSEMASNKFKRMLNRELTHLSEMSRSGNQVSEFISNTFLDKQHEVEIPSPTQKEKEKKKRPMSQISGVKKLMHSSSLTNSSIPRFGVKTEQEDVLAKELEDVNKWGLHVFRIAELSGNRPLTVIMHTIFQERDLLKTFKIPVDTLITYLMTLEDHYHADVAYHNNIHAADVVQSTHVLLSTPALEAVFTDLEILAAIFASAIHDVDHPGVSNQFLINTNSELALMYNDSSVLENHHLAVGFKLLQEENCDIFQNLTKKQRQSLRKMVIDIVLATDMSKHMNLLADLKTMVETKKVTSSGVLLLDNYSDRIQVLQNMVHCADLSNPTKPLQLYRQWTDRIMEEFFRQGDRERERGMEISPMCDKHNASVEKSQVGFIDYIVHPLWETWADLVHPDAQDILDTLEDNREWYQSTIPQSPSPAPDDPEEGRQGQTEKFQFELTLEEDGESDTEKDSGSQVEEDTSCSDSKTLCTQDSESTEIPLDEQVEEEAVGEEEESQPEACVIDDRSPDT
Reported Metric: pIC50
Bear in mind: pIC50 is minus log10 of a mol/L concentration; give just that figure.

Tell me pIC50 reported for O=C(Cc1c(Cl)c[n+]([O-])cc1Cl)c1ccc(OC(F)F)c2c1OC1(CCS(=O)(=O)CC1)O2
8.52
